# test-system: T1, Human c-Met-Flis-Fc ECD (human)
# T1 construct: also called human c-Met extracellular domain (ECD)-Fc-Flis fusion; Human cMet-ECD-Fc-Flis
# T1 sequence (chain, as listed by the source limits assumed): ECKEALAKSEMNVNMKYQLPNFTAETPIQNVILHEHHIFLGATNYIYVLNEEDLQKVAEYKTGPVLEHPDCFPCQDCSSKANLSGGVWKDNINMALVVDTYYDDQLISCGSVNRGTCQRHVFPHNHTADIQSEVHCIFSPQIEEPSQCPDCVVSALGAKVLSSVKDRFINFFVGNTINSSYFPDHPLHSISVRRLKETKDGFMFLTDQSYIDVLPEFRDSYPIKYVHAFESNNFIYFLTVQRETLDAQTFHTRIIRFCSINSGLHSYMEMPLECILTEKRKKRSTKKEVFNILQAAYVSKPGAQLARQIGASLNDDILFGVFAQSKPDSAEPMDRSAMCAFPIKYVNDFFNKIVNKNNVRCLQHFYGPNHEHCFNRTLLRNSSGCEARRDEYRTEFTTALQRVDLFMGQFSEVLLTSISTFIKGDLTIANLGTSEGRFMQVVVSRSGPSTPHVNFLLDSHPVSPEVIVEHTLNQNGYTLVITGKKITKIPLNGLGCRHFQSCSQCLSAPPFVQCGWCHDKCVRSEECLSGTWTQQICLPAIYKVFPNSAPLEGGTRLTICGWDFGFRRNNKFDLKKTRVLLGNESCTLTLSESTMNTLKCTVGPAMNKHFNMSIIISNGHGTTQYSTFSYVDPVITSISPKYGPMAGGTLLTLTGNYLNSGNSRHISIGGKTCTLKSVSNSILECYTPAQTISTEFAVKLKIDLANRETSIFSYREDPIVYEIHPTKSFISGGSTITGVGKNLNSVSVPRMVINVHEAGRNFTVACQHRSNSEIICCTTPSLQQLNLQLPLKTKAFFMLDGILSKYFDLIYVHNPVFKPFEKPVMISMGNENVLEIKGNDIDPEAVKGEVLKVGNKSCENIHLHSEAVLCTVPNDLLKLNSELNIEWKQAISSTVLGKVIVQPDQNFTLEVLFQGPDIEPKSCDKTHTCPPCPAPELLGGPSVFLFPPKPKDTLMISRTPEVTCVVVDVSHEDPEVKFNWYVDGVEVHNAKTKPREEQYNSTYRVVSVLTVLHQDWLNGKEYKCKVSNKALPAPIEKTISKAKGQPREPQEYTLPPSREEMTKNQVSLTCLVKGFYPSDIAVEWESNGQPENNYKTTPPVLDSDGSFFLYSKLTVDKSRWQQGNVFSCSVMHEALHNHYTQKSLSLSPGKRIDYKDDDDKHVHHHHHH
# method-description: SPR Biacore, antibody captured, ECD-Fc analyte, 1:1 model
Measured kon by item
test-readout: kon (M⁻¹ s⁻¹)

>>> endpoint_value("D11-S17Y (antibody, human IgG2, kappa, V domains shown, Human engineered IgG2, kappa) VH: QVQLVQSGAEVKKPGSSVKVSCKASGYTFTSRYIHWVRQAPGQGLEWMGWIYPVTGDTYYNEKFKGRVTITADKSTSTAYMELSSLRSEDTAVYYCARGYGAFYYWGQGTLVTVSS VL: EIVLTQSPGTLSLSPGERATLSCSVSSSISSTNLHWYQQKPGQAPRLLIYGTSYLASGIPDRFSGSGSGTDFTLTISRLEPEDFAVYYCQQWSSYPYSFGQGTKLEIKR")
70000
>>> endpoint_value("D11-C27G3 (antibody, human IgG2, kappa, V domains shown, Human engineered IgG2, kappa; also called D11-27G3) VH: QVQLVQSGAEVKKPGSSVKVSCKASGYTFTSRYIHWVRQAPGQGLEWMGWIYPVTGDTYYREPFKGRVTITADKSTSTAYMELSSLRSEDTAVYYCARGYGAFYYWGQGTLVTVSS VL: EIVLTQSPGTLSLSPGERATLSCSVSSSISSTNLHWYQQKPGQAPRLLIYGTSRLRSGIPDRFSGSGSGTDFTLTISRLEPEDFAVYYCQQWSSYPYSFGQGTKLEIKR")
64000
>>> endpoint_value("D11-8B8 (antibody, human IgG2, kappa, V domains shown, Human engineered IgG2, kappa; expressed in HEK293 EBNA cells; also called Mab D11-8B8) VH: QVQLVQSGAEVKKPGSSVKVSCKASGYTFTSRYIHWVRQAPGQGLEWMGWIYPVTGDTYYIEKFKGRVTITADKSTSTAYMELSSLRSEDTAVYYCARGYGAFFYWGQGTLVTVSS VL: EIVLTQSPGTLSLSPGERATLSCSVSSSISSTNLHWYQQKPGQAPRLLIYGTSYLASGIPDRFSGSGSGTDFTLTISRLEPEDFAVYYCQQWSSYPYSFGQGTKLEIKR")
100000
>>> endpoint_value("C8-6 (antibody, human IgG2, kappa, V domains shown, Called IgG4, kappa; also called Mab C8-6) VH: QVQLVQSGAEVKKPGASVKVSCKASGYTFTDYYMHWVRQAPGQGLEWMGRVNPNRGGTTYNQKFEGRVTMTTDTSTSTAYMELRSLRSDDTAVYYCARTNWLDYWGQGTTVTVSS VL: DIQMTQSPSSLSASVGDRVTITCSVSSSVSSIYLHWYQQKPGKAPKLLIYSTSNLASGVPSRFSGSGSGTDFTLTISSLQPEDFATYYCIQYSGYPLTFGGGTKVEIKR")
160000
>>> endpoint_value("C8-co-16 (antibody, human IgG2, kappa, V domains shown, Called IgG4, kappa) VH: QVQLVQSGAEVKKPGASVKVSCKASGYTFTDYYMHWVRQAPGQGLEWMGRVNPYRGSTTYNQKFEGRVTMTTDTSTSTAYMELRSLRSDDTAVYYCARANILDYWGQGTTVTVSS VL: DIQMTQSPSSLSASVGDRVTITCSVSSSVRSIYLHWYQQKPGKAPKLLIYSTSNLASGVPSRFSGSGSGTDFTLTISSLQPEDFATYYCQVYRGYPLTFGGGTKVEIKR")
110000
